assay: Drug levels in blood, perilymph and CSF after IP injection (LC/MS); format: in vivo, guinea pig; conditions: NIH-strain, pigmented, guinea pig, perilymph relative to blood, ip, 13.5 mg/kg, IP 13.5 mg/kg; ~2 h after injection; N = 3; read-out: perilymph level as % of blood level
parameter-measured: Kp

molecule: C[N+](C)(C)CCCCCNCC12CC3CC(CC(C3)C1)C2 [IEM-1460]
parameter-measured: Kp
reading: ~0.3

====

assay: Metabolic stability in vitro as summarised in the abstract (species not given); format: in vitro ADME; settings: mouse, guinea pig, human, liver microsomes, pH 7.4

compound: NCCCCCNC1(c2ccccc2)CCCCC1 [IEM-1925]
half-life: > 5 h
//
compound: C[N+](C)(C)CCCCCNCC12CC3CC(CC(C3)C1)C2 [IEM-1460]
half-life: > 5 h

====

Overview of recorded half-life at 1 μM for various compounds
experiment: In vitro microsomal stability assay, guinea pig; assay type: in vitro ADME; conditions: pH 7.4; guinea pig liver microsomes, 1 μM compound, 37°C; read-out: Half-life (min) Mean (N = 2)

item-smiles: C[N+](C)(C)CCCCCNCC12CC3CC(CC(C3)C1)C2
half-life at 1 μM: > 300 min
//
item-smiles: NCCCCCNC1(c2ccccc2)CCCCC1
half-life at 1 μM: > 300 min

====

assay: In vitro microsomal stability assay, human; type: in vitro ADME; conditions: pH 7.4; human liver microsomes, 1 μM compound, 37°C; read-out: Half-life (min) Mean (N = 2)
Overview of recorded half-life at 1 μM for various molecules

item-smiles: C[N+](C)(C)CCCCCNCC12CC3CC(CC(C3)C1)C2
half-life at 1 μM: > 300 min

item-smiles: NCCCCCNC1(c2ccccc2)CCCCC1
half-life at 1 μM: > 300 min

====

molecular target: hERG potassium channel (Kv 11.1) (Homo sapiens, UniProt Q12809); construct: Eurofins Scientific, Inc; assay: Radioligand binding assay, hERG potassium channel; settings: antagonist 1 μM, read-out: Mean% inhibition (N = 2) of radioligand binding
Sequence (Q12809 whole entry): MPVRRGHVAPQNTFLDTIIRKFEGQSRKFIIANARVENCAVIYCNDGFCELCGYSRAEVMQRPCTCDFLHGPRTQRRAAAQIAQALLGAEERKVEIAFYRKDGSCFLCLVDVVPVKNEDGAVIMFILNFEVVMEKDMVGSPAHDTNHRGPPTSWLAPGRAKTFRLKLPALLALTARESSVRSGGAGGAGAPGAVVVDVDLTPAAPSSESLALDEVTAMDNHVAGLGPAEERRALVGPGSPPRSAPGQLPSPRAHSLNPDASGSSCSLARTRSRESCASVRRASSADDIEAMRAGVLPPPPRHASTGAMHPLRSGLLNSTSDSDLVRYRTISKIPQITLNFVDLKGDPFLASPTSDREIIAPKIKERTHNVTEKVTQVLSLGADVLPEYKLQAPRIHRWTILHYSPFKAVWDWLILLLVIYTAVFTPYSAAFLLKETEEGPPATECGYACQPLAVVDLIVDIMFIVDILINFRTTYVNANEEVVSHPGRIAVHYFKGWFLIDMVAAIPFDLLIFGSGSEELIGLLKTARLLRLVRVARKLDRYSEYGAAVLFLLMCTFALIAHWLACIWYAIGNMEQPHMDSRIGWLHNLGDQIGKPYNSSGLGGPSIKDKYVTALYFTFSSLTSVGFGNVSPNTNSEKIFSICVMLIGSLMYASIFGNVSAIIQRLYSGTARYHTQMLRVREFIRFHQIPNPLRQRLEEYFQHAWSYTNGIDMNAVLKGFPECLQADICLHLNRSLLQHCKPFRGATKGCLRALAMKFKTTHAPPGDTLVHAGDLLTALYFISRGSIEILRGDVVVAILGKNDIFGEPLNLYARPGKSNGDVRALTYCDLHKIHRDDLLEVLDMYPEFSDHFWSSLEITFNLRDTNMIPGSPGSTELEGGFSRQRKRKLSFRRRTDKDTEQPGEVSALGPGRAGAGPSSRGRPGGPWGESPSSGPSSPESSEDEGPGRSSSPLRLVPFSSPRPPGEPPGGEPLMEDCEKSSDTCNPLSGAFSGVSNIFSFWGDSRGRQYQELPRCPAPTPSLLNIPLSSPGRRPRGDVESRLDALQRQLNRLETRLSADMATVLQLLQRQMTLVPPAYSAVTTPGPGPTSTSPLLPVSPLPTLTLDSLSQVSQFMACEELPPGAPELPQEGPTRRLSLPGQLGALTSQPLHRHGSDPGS
Overview of recorded inhibition at 1 μM for various molecules
parameter-measured: inhibition at 1 μM

item-smiles: NCCCCCNC1(c2ccccc2)CCCCC1
study-target: hERG potassium channel (Kv 11.1) (Homo sapiens, UniProt Q12809)
reading: < 1%

item-smiles: C[N+](C)(C)CCCCCNCC12CC3CC(CC(C3)C1)C2
study-target: hERG potassium channel (Kv 11.1) (Homo sapiens, UniProt Q12809)
reading: < 5%

====

test: Drug levels in blood, perilymph and CSF after IP injection (LC/MS); format: in vivo, guinea pig; conditions: NIH-strain, pigmented, guinea pig, CSF relative to blood, ip, 13.5 mg/kg, IP 13.5 mg/kg; ~2 h after injection; N = 3; read-out: CSF level as % of blood level
parameter-measured: Kp

item-smiles: C[N+](C)(C)CCCCCNCC12CC3CC(CC(C3)C1)C2
parameter-measured: Kp
reading: 0.08 to 0.23

====

Overview of recorded half-life at 1 μM for various molecules
experiment: In vitro microsomal stability assay, mouse; type: in vitro ADME; conditions: pH 7.4; mouse liver microsomes, 1 μM compound, 37°C; read-out: Half-life (min) Mean (N = 2)

molecule: C[N+](C)(C)CCCCCNCC12CC3CC(CC(C3)C1)C2 [IEM-1460]
half-life at 1 μM: > 300 min
//
molecule: NCCCCCNC1(c2ccccc2)CCCCC1 [IEM-1925]
half-life at 1 μM: > 300 min
